molecular target: EGFR D770insNPG (Homo sapiens, UniProt P00533, INS770NPG); construct: expressed in transfected cells; host or cells: Ba/F3 cells, retroviral pBabe-Puro vector; test: Ba/F3 drug screening, Cell Titer Glo, IC50 Mut/WT; format: cell-based; conditions: Ex20, 72 hours
Assign ratio of IC50 for cells with mutant EGFR to IC50 for cells with wildtype EGFR (Mut/WT) to each entry below.

CN(C)C/C=C/C(=O)Nc1cc2c(Nc3ccc(Cl)c(Br)c3)ncnc2cn1 [Tarlox-TKI]	5.023
CNC(=O)CN1CCC(Oc2cc3c(Nc4cccc(Cl)c4F)ncnc3cc2OC)CC1 [Sapatinib]	5.022
C=CC(=O)N[C@H]1C=C(C)c2c(-c3cnc4ccccc4c3)c3c(N)ncnc3n2C1 [TAS 6417]	0.0168

Now consider the entry below.
Give ratio of IC50 for cells with mutant EGFR to IC50 for cells with wildtype EGFR (Mut/WT) for the following compound: C=CC(=O)Nc1cc(Nc2nccc(-c3c[nH]c4ccccc34)n2)c(OC)cc1N(C)CCN(C)C [AZ5104]
1.976
